assay procedure: Accelerated ageing at 84° C.: effect of additives on thiocarbonate half-life
Assay type: physicochemical
condition details: additive Concentration 1.0 Wt. %, parentheses = decrease
Counter-ions that a name gives are not always drawn.
outcome measure: Increase (Decrease) in Half-Life, % (%)
One number for each entry, in %.

O=C1O[C@H]([C@@H](O)CO)C(O)=C1O :: 0
COc1ccc(O)cc1 :: 0
CCN(CC)CC :: 0

We next turn to a different compound, shown below.
Problem: Give the measured Increase (Decrease) in Half-Life, % of O=C(O)CC(O)(CC(=O)O)C(=O)O [Citric Acid, Na Salt] .
Solution: 0
